target-or-system: PD-1/PD-L1 (Homo sapiens)
Construct: made in house; host or cells: HEK293T
measurement-description: PD-1/PD-L1 Homogenous Time-Resolved Fluorescence (HTRF) binding assay
test-settings: PD-L1-His 10 nM, PD-1-Ig 20 nM; value given as range class; read-out: Range or IC50
Method: The ability of the compounds of formula (I) to bind to PD-L1 was investigated using a PD-1/PD-L1 Homogenous Time-Resolved Fluorescence (HTRF) binding assay. Homogenous Time-Resolved Fluorescence (HTRF) Binding Assay. All binding studies were performed in an HTRF assay buffer consisting of dPBS supplemented with 0.1% […] bovine serum albumin and 0.05% (v/v) Tween-20. […]
reported-property: IC50

Task item: I am curious: what IC50 value has been reported for "CO[C@@H]1CCN(CCCOc2cccc(-c3cccc(COc4cc(OCc5cncc(C#N)c5)c(CO)cc4Cl)c3C)c2C)C1" ?
Reply: 0.00021 to 0.01 µM

Task item: I am curious: what IC50 value has been reported for "Cc1c(COc2cc(OCc3cncc(C#N)c3)c(CN[C@@](C)(CO)C(=O)O)cc2Cl)cccc1-c1cccc(OCCCN2CCC(F)(F)C2)c1C" ?
Reply: 0.00021 to 0.01 µM

Task item: I am curious: what IC50 value has been reported for "Cc1c(COc2cc(OCc3cncc(C#N)c3)c(CN[C@@](C)(CO)C(=O)O)cc2Cl)cccc1-c1cccc(OCCCN2CC[C@@H](O)C2)c1" ?
Reply: 0.00021 to 0.01 µM

Now let's try a different one.
Task item: I am curious: what IC50 value has been reported for "Cc1c(CCCCN2CC[C@@H](O)C2)cccc1-c1cccc(COc2cc(OCc3cncc(C#N)c3)c(CNC(CO)(CO)CO)cc2Cl)c1C" ?
Reply: 0.00021 to 0.01 µM

----------
target-or-system: PD-1/PD-L1 (Homo sapiens, UniProt Q9NZQ7)
Construct: made in house; host or cells: HEK293T
Sequence (Q9NZQ7 with tags, fused parts or gaps): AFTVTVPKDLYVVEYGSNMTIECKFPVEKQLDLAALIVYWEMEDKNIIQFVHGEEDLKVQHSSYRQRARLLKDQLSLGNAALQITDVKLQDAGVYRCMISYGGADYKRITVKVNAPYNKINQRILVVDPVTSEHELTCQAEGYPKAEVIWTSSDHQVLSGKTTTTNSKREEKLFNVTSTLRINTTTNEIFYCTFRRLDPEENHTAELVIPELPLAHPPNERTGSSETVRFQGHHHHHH
measurement-description: PD-1/PD-L1 Homogenous Time-Resolved Fluorescence (HTRF) binding assay
test-settings: PD-L1-His 10 nM, PD-1-Ig 20 nM; value given as range class; read-out: Range or IC50
pIC50: −log10 of the molar value.
reported-property: pIC50

Task item: I am curious: what pIC50 value has been reported for "Cc1c(COc2cc(OCc3cncc(C#N)c3)c(CNC(C)(CO)CO)cc2Cl)cccc1-c1cccc(OCCCN2CC[C@@H](O)C2)c1C" ?
Reply: 8.00 to 9.68

Task item: I am curious: what pIC50 value has been reported for Cc1c(COc2cc(OCc3cncc(C#N)c3)c(CN[C@](C)(CO)C(=O)O)cc2Cl)cccc1-c1cccc(OCCCN2CCCC(CO)C2)c1Cl (stereo partly drawn) ?
Reply: 8.00 to 9.68

Task item: I am curious: what pIC50 value has been reported for "Cc1c(OCCCN2CC[C@@H](O)C2)cccc1-c1cccc(COc2cc(OCc3cncc(C#N)c3)c(CN[C@](C)(CO)C(=O)O)cc2Cl)c1" ?
Reply: 8.00 to 9.68

New cases:
Task item: I am curious: what pIC50 value has been reported for "Cc1c(COc2cc(OCc3cncc(C(N)=O)c3)c(CN[C@H](CO)C(=O)O)cc2Cl)cccc1-c1cccc(OCCCN2CCC(O)(C(=O)O)CC2)c1C" ?
Reply: 8.00 to 9.68

Task item: I am curious: what pIC50 value has been reported for "Cc1c(COc2cc(OCc3cncc(C#N)c3)c(CNC(C)(CO)CO)cc2Cl)cccc1-c1cccc(OCCCN2CCC(F)(F)C2)c1C" ?
Reply: 8.00 to 9.68

Task item: I am curious: what pIC50 value has been reported for "CCNC(=O)c1cccc(-c2cccc(COc3cc(OCc4cncc(C#N)c4)c(CN4C[C@H](O)C[C@H]4C(=O)O)cc3Cl)c2C)c1C" ?
Reply: 7.00 to 8.00

Task item: I am curious: what pIC50 value has been reported for "Cc1c(COc2cc(OCc3cncc(C#N)c3)c(CN(CCO)[C@@](C)(CO)C(=O)O)cc2Cl)cccc1-c1cccc(OCCCN2CC[C@@H](O)C2)c1C" ?
Reply: 8.00 to 9.68

Task item: I am curious: what pIC50 value has been reported for "Cc1c(COc2cc(OCc3cncc(S(C)(=O)=O)c3)c(CN3CCCC[C@H]3C(=O)O)cc2Cl)cccc1-c1cccc(OCCCN2C[C@H](O)C[C@H]2C(=O)O)c1Cl" ?
Reply: 8.00 to 9.68

Task item: I am curious: what pIC50 value has been reported for "Cc1c(COc2cc(OCc3cncc(C#N)c3)c(CN3CCCC[C@H]3C(=O)O)cc2Cl)cccc1-c1cccc(OCCCN[C@@H](CO)c2ccccc2)c1C" ?
Reply: 8.00 to 9.68

Task item: I am curious: what pIC50 value has been reported for "Cc1c(OCCCN2CCS(=O)(=O)CC2)cccc1-c1cccc(COc2cc(OCc3cncc(C#N)c3)c(CN3CCCC[C@H]3C(=O)O)cc2Cl)c1Cl" ?
Reply: 8.00 to 9.68

Task item: I am curious: what pIC50 value has been reported for "N#Cc1cncc(COc2cc(OCc3cccc(-c4cccc(OCCCN5CC[C@@H](O)C5)c4Cl)c3Cl)c(Cl)cc2CN2CCCC[C@H]2C(=O)O)c1" ?
Reply: 8.00 to 9.68

Task item: I am curious: what pIC50 value has been reported for "Cc1c(COc2cc(OCc3cncc(C#N)c3)c(CN[C@@](C)(CO)C(=O)O)cc2Cl)cccc1-c1cccc(OCC(=O)N2CC[C@H](O)C2)c1" ?
Reply: 7.00 to 8.00
